# system-tested: Tyrosine-protein kinase Lck (Homo sapiens, UniProt P06239)
# Sequence (P06239 whole entry): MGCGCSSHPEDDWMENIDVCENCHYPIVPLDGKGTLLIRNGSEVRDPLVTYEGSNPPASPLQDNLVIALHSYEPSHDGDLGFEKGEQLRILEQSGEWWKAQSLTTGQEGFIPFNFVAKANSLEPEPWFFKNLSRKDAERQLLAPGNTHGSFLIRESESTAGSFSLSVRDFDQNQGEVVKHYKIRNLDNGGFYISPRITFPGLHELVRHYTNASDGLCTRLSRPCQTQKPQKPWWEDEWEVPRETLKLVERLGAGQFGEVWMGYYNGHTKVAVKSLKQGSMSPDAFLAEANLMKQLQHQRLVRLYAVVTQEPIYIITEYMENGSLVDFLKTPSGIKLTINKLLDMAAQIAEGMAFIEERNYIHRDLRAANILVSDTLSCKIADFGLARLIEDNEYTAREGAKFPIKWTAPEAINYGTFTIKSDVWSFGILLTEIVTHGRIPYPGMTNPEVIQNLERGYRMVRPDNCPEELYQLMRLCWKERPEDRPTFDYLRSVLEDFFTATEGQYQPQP
pIC50: −log10 of the molar value.

{"smiles": "CN(C)CCOc1ccc2c(c1)CCn1nc(-c3ccc(Oc4ccccc4)cc3)c(C(N)=O)c1N2", "pIC50": 9.14}

---

# system-tested: Dual specificity mitogen-activated protein kinase kinase 1 (Homo sapiens, UniProt Q02750)
# Sequence (Q02750 whole entry): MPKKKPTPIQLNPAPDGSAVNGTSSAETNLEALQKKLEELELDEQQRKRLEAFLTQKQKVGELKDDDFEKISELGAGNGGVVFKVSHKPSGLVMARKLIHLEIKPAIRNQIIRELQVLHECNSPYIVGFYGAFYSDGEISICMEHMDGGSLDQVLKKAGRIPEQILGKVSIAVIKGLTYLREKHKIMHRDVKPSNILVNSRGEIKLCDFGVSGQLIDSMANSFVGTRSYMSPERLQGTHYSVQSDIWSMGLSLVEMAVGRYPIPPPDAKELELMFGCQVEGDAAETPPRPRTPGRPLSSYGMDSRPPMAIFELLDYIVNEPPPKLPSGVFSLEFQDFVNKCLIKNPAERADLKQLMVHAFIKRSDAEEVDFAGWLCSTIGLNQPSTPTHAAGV
# experiment-notes: Inhibition of MEK1

{"smiles": "CN(C)CCOc1ccc2c(c1)CCn1nc(-c3ccc(Oc4ccccc4)cc3)c(C(N)=O)c1N2", "IC50": "> 10 µM"}

---

# system-tested: Proto-oncogene tyrosine-protein kinase Src (Homo sapiens, UniProt P12931)
# Sequence (P12931 2-536 limits assumed): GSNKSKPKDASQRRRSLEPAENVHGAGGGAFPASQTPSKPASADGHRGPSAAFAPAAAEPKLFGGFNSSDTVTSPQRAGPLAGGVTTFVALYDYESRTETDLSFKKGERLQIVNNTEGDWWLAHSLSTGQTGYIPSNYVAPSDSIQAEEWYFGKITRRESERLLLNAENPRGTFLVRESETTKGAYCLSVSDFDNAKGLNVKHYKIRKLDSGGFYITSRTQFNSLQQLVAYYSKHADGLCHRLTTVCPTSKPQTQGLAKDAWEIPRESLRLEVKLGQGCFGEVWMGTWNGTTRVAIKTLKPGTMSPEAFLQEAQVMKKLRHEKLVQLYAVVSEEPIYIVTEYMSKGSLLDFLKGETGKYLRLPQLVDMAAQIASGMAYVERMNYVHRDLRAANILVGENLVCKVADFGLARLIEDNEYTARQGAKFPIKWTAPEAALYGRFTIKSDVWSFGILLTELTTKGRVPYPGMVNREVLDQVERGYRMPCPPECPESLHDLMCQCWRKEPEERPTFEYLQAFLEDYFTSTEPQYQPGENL
pIC50: −log10 of the molar value.
attribute-measured: pIC50

{"smiles": "CN(C)CCOc1ccc2c(c1)CCn1nc(-c3ccc(Oc4ccccc4)cc3)c(C(N)=O)c1N2", "attribute-measured": "pIC50", "measured-number": 9.22}
